Molecular target: recombinant rat PAI-1 (Rattus norvegicus, UniProt P20961)
Sequence (P20961 24-402): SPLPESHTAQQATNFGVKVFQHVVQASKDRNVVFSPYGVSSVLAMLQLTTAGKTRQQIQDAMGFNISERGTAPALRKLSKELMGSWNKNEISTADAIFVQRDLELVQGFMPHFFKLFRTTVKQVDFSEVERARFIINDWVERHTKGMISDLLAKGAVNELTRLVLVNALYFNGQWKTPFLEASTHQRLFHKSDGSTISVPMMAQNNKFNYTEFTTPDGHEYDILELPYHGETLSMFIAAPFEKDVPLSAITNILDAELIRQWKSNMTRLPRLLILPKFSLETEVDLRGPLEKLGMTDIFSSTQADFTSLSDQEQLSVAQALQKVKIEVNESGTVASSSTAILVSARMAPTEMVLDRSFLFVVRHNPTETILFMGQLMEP
Test: biochemical
Conditions: read-out: Inhibition Rate of PAI-1 Activity (%)
VALUE TYPE: inhibition at 0.3 µM (%)
Give your result in % as a bare value.

- CC(C)(C)c1ccc(C(c2ccccc2)N(C(=O)C(=O)O)c2ccc(-c3ccc(OC(F)(F)F)cc3)cc2)cc1 (stereo not drawn) [Compound 222]: 3

Problem: Quick check: inhibition at 0.3 µM of CC(C)(C)c1ccc(CN(C(=O)C(=O)O)c2ccc(Cl)c(-c3ccc(OC(F)(F)F)cc3)c2)cc1 [Compound 186] ?
Solution: 2

Problem: Quick check: inhibition at 0.3 µM of CCCCOc1ccc(-c2ccc(OC(F)(F)F)cc2)cc1N(Cc1ccc(C(C)(C)C)cc1)C(=O)C(=O)O [Compound 189] ?
Solution: 9

Problem: Quick check: inhibition at 0.3 µM of CC(C)(C)c1ccc(COc2cc(-c3ccc(OC(F)(F)F)cc3)ccc2CCC(=O)O)cc1 [Compound 76] ?
Solution: 0

Problem: Quick check: inhibition at 0.3 µM of CC(C)(Oc1cccc(-c2ccc(OC(F)(F)F)cc2)c1OCc1ccc(C(C)(C)C)cc1)C(=O)O [Compound 118] ?
Solution: 0

Problem: Quick check: inhibition at 0.3 µM of CCCCOc1ccc(N(CCCCc2ccccc2)C(=O)C(=O)O)cc1-c1ccc(OC(F)(F)F)cc1 [Compound 227] ?
Solution: 0

Problem: Quick check: inhibition at 0.3 µM of CC(C)(C)c1ccc(CN(C(=O)C(=O)O)c2cccc(-c3ccc(OC(F)(F)F)cc3)c2)cc1 [Compound 130] ?
Solution: 1
